# TEST: In vivo permeability study, 3H-methotrexate tissue distribution in mice
# Parameters: species or system mouse
# SETTINGS: female, Balb/c, mouse, brain / plasma, intravenous, 4 uCi total activity; methotrexate alone; 15 minutes after systemic administration; read-out: brain to plasma ratio of 3H-methotrexate in control mice
REPORTED PROPERTY: Kp at 15 min

Request: Report Kp at 15 min for CN(Cc1cnc2nc(N)nc(N)c2n1)c1ccc(C(=O)N[C@@H](CCC(=O)O)C(=O)O)cc1 [^3H-methotrexate, methotrexate, reference compound] please.
Response: ~0.02
